Assembled from different publications: pIC50 for Prostaglandin G/H synthase 1 (Ovis aries).
# assay-system: Prostaglandin G/H synthase 1 (Ovis aries)
# Sequence (P05979 whole entry): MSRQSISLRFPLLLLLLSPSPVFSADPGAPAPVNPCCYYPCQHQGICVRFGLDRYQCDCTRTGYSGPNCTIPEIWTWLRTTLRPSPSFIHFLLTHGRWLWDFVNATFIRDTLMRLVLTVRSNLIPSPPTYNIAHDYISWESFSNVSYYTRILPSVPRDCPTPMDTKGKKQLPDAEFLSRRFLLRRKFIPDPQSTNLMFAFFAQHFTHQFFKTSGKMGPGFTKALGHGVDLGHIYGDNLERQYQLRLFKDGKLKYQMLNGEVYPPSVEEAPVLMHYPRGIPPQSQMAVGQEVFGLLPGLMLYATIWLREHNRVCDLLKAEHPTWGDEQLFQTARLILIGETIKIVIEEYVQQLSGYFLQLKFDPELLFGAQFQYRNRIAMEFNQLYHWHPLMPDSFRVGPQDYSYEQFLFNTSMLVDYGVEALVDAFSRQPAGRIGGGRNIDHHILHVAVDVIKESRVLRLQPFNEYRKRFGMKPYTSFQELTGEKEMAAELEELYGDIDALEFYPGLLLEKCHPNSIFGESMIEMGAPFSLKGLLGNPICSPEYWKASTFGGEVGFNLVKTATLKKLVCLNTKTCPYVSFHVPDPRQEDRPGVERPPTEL
pIC50: −log10 of the molar value.

Worked examples follow.
mol-smiles: C[Si](C)(C)c1onc(-c2ccccc2)c1-c1ccc(S(C)(=O)=O)cc1
pIC50: < 4.00
//
mol-smiles: CS(=O)(=O)c1ccc(C(CCF)=C(c2ccccc2)c2ccccc2)cc1
pIC50: < 4.00
//
mol-smiles: Brc1ccc(-c2nn(-c3ccccc3)cc2-c2nnc(-c3ccncc3)o2)cc1
pIC50: < 4.00

Item: `Cc1cc(OCc2ccc(I)cc2)c2c(c1)C(=O)c1cccc(OCc3ccc(I)cc3)c1C2=O` | System: Prostaglandin G/H synthase 1 (Ovis aries) | pIC50: < 4.52

----------
pIC50: −log10 of the molar value.
Assembled from different publications: pIC50 for Prostaglandin G/H synthase 1 (Ovis aries).

molecule: O=[N+]([O-])c1ccc(-c2nn(-c3ccccc3)cc2-c2nnc(-c3ccc(Cl)cc3)o2)cc1
result: < 4.00

molecule: O=C(O)[C@H]1C[C@](O)(c2ccc(F)cc2)[C@@H](c2ccc(F)cc2)O1 (relative stereo)
result: < 5.00

molecule: CC(C)c1ccc2c(c1)c1c(n2CC(=O)O)CCN(C(=O)c2ccccc2)C1
result: < 5.00

molecule: CC(C(=O)O)c1ccccc1-c1ccn(C(F)F)c(=O)c1 (stereo unspecified)
result: < 4.00

molecule: CS(=O)(=O)c1ccc(-n2nnnc2-c2ccc(Cl)cc2)cc1
result: < 4.00

Turning now to a further record.
Notebook: `O=C1OCC(c2ccccc2)=C1c1ccccc1F` , pIC50 read as < 4.60

----------
Assembled from different publications: IC50 for Prostaglandin G/H synthase 1 (Ovis aries, UniProt P05979).
# assay-system: Prostaglandin G/H synthase 1 (Ovis aries, UniProt P05979)
# Sequence (P05979 whole entry): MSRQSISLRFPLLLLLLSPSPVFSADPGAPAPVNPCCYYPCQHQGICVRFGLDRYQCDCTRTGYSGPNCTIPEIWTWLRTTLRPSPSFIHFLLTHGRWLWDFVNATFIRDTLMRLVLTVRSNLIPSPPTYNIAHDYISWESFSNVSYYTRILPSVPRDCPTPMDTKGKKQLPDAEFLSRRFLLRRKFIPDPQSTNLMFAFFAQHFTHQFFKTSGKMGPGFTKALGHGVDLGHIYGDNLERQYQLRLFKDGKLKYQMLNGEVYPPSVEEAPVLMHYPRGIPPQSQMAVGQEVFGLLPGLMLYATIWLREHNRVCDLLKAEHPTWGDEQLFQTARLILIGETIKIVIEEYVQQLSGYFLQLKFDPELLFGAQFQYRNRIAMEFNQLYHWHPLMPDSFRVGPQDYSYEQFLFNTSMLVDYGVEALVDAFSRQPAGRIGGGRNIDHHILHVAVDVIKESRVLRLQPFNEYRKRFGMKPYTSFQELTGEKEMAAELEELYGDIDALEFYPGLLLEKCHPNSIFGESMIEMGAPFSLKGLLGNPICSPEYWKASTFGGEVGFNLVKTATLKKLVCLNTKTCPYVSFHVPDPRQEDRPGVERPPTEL

Worked examples follow.
compound: CCCSc1nnc(-c2cc(C(C)(C)C)c(O)c(C(C)(C)C)c2)s1
IC50: > 20 µM

compound: O=C(N/N=C/c1ccc(Cl)cc1)C(C(=O)N/N=C/c1ccc(Cl)cc1)N1C(=O)c2ccccc2S1(=O)=O
IC50: 7.65 µM

compound: COc1ccc(NC(=O)c2nc(-c3ccccc3)n(-c3ccc(S(N)(=O)=O)cc3)n2)cc1OC
IC50: 346 µM

Turning now to a further record.
Notebook: `COc1ccc(/C=C2\C(c3ccc(Cl)cc3)=NN=C2C(F)(F)F)cc1` , IC50 read as > 50 µM
